B1: BTBD10 (parent)
chain: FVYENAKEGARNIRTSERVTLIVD

# Variants of: B1
# Experimental protocol: protein stability index of a GFP-peptide fusion (GPS, HEK-293T) (PSI 1-6); higher = more stable;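 note: lentivirally expressed fusions sorted by FACS into six bins by GFP to DsRed ratio, PSI derived from sequencing read proportions per bin multiplied by bin number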
# Protocol conditions: c terminus: a fixed tail appended
# protein stability index annotations
When you answer, write just the number.

INSERT INTO measurements (sequence_change, quantitative_result) VALUES
  ('F1P', 3.46),
  ('L21I', 1.57),
  ('N12I', 1.84),
  ('G9V', 1.77),
  ('V2Q', 3.07);

GET /value?item= G9Y &field=protein stability index returns 1.41

In plain terms, E8L has a documented protein stability index of 2.29

The variant listed as A6F shows protein stability index equal to 1.8

Data point: K7G ; protein stability index = 1.99

Entry under test: V2Y . Its protein stability index was 2.45

Entry N12T , protein stability index reported as 1.93
